system: MARK1; settings: concentration: 1 μM, replicates: in singlicate; n = 1;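 also: KINOMEscan kinase panel screen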
testReadout: %Inh (%)
Answers are plain numbers, in %.

COc1ccc(S(=O)(=O)NC2CCN(c3cc(C)nc(Nc4cccc(C#N)c4)n3)CC2)cc1.O=C(O)C(F)(F)F [GSK1653539]; 0
O=C(c1ccc(-c2cc(-c3c[nH]nc3-c3ccccn3)ccn2)cc1)N1CCOCC1 [GW812171]; 5
CCc1ccnc(/C=C/c2n[nH]c3cc(Sc4ccccc4C(=O)NC)ccc23)c1; 27
CN(C1=C(c2ccccc2)C(=O)NC1=O)c1ccccc1 [SB-334860]; 0
Cc1cn2c(=O)cc(N3CCOCC3)nc2n1Cc1cccc(Cl)c1Cl [GSK2334006]; 0

Hey, can you go through the list below and give me %Inh for every item?
1. [2H]C([2H])(c1cccc(C(F)(F)F)c1C)n1ccn2c(=O)nc(N3CCOCC3)cc12 [GSK2336394]
2. COc1cc(Nc2nccc(N3CCC(NC(=O)c4cccc(NC(C)=O)c4)C3)n2)cc(OC)c1OC (centres unmarked) [GSK1379754]
3. CNc1ncnc2[nH]ncc12 [SKF-18355]
4. C[C@@H](Oc1cc(-n2cnc3ccc(NC(=O)NC(C)(C)C)cc32)sc1C(N)=O)c1ccccc1Cl [GSK346294]
5. CC(=O)Nc1ccc(COc2ccc(Nc3ccnc4cc(-c5ccccn5)ccc34)cc2)cc1.Cl [GW440148]
6. CN1c2ccc(NCc3ccc(F)cc3)cc2-c2c(cnn2C)S1(=O)=O
7. c1ccc(-c2cc(-c3c[nH]nc3-c3ccccn3)ccn2)cc1 [GW576604]

1. 0
2. 0
3. 23
4. 1
5. 0
6. 0
7. 0

Hello, I would appreciate it if you could give %Inh for each entry below.
1. CN1c2ccc(CNc3ccc(F)cc3)cc2-c2c(cnn2C)S1(=O)=O
2. Cc1nnc(-c2ccc3ncc(-c4ccc(S(C)=O)cc4)n3c2)o1 (centres unmarked)
3. Cc1cccc(-c2nc(Nc3ccc4ncsc4c3)c3ccccc3n2)n1 [GW867588]

1: 3; 2: 0; 3: 6

Hey, quick one: what's %Inh for each of these?
1. Cc1cccc(Cn2ccn3c(=O)cc(N4CCOCC4)nc23)c1 [GSK2297542]
2. Cc1nnc(-c2ccc(C)c(-c3ccc(C(=O)Nc4ccc(NS(C)(=O)=O)cc4)cc3)c2)o1 [GW702865]
3. Cc1ccc(C(=O)NCC(N)=O)cc1-n1c(C)cc(OCc2ccc(F)cc2F)c(Br)c1=O
4. O=C(NCCCN1CCOCC1)c1cccc(Nc2nccc(Nc3ccc(Oc4ccccc4)cc3)n2)c1 [GW663929]
5. COc1cc2ncn(-c3cc(OCc4sccc4Cl)c(C(N)=O)s3)c2cc1OC [GSK448459]
6. O=c1cc(N2CCOCC2)nc2n(Cc3cccc(Cl)c3Cl)c(C3CC3)nn12 [GSK2358994]
7. CC(C)(C)n1cnc2c(N)ncnc21 [SKF-97359]
8. O=c1cc(N2CCOCC2)nc2n(Cc3cccc4ccccc34)ccn12 [GSK2333389]

1: 7; 2: 0; 3: 24; 4: 0; 5: 0; 6: 0; 7: 0; 8: 0

For every record below, what is its %Inh?
1. NCC(NC(=O)c1cc(-c2cn[nH]c2)c(-c2ccnc3[nH]ccc23)s1)c1ccccc1.O=C(O)C(F)(F)F.O=C(O)C(F)(F)F (centres unmarked) [GSK1325775]
2. O=C(Nc1cccc(-c2nn3ncccc3c2-c2ccnc(Nc3cccc(C(F)(F)F)c3)n2)c1)c1c(F)cccc1F [GSK299495]
3. CSc1ccc(-c2cc3ncnc(SCC(=O)O)c3s2)cc1
4. Cc1c(Cn2c(C)nn3c(=O)cc(N4CCOC(C)C4)nc23)cccc1C(F)(F)F (centres unmarked) [GSK2344444]
5. COc1cc2c(cc1OC[C@@H](O)CO)ncc1c3ccc(C#N)cc3[nH]c21

1. 0
2. 0
3. 0
4. 0
5. 0

Working through the 4 compounds below one at a time, give %Inh for each.
1. O=C(NCCNc1ccnc(Nc2ccc(F)cc2)n1)c1cc2ccccc2s1 [GSK1379874]
2. COc1cc2c(cc1OCCN1CCN(C)CC1)ncc1c3ccc(C#N)cc3[nH]c21
3. O=c1cc(N2CCOCC2)nc2n(Cc3cccc(F)c3)ccn12 [GSK2297430]
4. NS(=O)(=O)CCc1cccc(Nc2nccc(-c3c(-c4cccc(NC(=O)c5c(F)cccc5F)c4)nn4ccccc34)n2)c1 [GSK336735]

0
7
0
13

Quick batch: %Inh for everything below.
1. Nc1nc(-c2ccc3c(N)n[nH]c3c2)cc(N2CCCC2)n1 [GSK2227430]
2. Nc1nccc(-c2c(-c3ccc(F)cc3)ncn2C2CCN(CC(F)(F)F)CC2)n1 [SB-236560]
3. NS(=O)(=O)c1cccc(-c2ccc3nccc(-c4cccc(S(N)(=O)=O)c4)c3c2)c1 [GW867253]

0
0
7
